Tested on: MCF7 human breast cancer cell lines
Experiment Description: MCF7 cell growth, MTT dye absorbance
Type: cell-based
Assay Setup: 72 hr
Observable: MCF7 cell growth

Use the examples below as a reference point.
> print(dat)
                            chemical.smiles  readout.value
1  CN1CCC(C(=O)N/N=C/c2ccc(N(c3ccccc3)c3ccccc3)cc2)CC1        inhibit
2  CC(=O)N/N=C/c1ccc(N(c2ccccc2)c2ccccc2)cc1        inhibit
3  O=C(N/N=C/c1ccc(N(c2ccccc2)c2ccccc2)cc1)c1ccccc1        inhibit
4          O=Cc1ccc(N(c2ccccc2)c2ccccc2)cc1        inhibit
5                        CC(=O)NN=Cc1ccccc1         do not

Here are 2 compounds. What values of MCF7 cell growth were reported for them?
1. O=C(NN=Cc1ccccc1)c1ccccc1
2. O=C1CN(/N=C/c2ccc(N(c3ccccc3)c3ccccc3)cc2)C(=O)N1

A.
1. do not
2. inhibit

Q. Return reported MCF7 cell growth for target or system MCF7 human breast cancer cell lines, item `O/N=C/c1ccc(N(c2ccccc2)c2ccccc2)cc1` .
A. inhibit
